target: T1, SARS-CoV-2 receptor binding domain (RBD), wild type, His-tagged (BEI NR52309) (SARS-CoV-2, UniProt P0DTC2 319-541)
T1 construct: also called WT RBD
Give RBD binding for every item shown.

>  <BINDER>
mAb 52 (antibody, V domains shown, also called IgG 52; antibody 52) VH: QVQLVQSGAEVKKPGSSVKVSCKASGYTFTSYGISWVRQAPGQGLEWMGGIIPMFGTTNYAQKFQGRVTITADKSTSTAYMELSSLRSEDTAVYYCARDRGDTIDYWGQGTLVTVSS VL: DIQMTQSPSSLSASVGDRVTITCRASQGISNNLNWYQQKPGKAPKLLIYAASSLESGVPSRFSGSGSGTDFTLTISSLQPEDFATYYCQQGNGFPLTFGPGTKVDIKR

>  <RESULT>
0.8

$$$$
>  <BINDER>
mAb 82 (antibody, V domains shown, also called IgG 82) VH: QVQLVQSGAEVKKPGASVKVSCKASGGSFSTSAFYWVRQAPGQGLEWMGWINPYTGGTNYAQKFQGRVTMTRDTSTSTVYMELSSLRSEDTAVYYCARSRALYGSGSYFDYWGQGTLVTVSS VL: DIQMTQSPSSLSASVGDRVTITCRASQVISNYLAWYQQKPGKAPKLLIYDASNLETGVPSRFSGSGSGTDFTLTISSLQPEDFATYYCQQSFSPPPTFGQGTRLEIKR

>  <RESULT>
0.4

$$$$
>  <BINDER>
mAb 324 (antibody, V domains shown, also called IgG 324) VH: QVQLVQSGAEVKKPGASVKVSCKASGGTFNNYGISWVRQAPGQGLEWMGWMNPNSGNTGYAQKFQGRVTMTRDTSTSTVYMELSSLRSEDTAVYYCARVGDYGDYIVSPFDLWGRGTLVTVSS VL: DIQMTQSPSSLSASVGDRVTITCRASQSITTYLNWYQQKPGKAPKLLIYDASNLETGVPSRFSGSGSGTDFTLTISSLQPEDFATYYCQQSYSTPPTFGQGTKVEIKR

>  <RESULT>
0.2

$$$$

QUERY: RBD binding for mAb 46 (antibody, V domains shown, also called IgG 46; antibody 46) VH: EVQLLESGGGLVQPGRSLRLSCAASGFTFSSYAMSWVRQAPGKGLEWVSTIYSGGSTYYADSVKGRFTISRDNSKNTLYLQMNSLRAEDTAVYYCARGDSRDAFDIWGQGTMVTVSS VL: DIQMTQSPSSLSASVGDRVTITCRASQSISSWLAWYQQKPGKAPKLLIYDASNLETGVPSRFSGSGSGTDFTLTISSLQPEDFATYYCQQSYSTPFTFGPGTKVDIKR ?
RESULT: 1.2

Origin of the recorded values: patent US20250011397A1
